assay: Alisertib plasma PK in patients; assay type: in vivo, human; conditions: human, plasma, oral, 50 mg, Geometric mean AUCτ (CV), MR, alisertib 50 mg b.i.d., C1D1, n=12
PROPERTY NAME: AUC (µM·h)
State just the number; it will be interpreted in µM·h.

Suppose we examine the compound COc1cc(Nc2ncc3c(n2)-c2ccc(Cl)cc2C(c2c(F)cccc2OC)=NC3)ccc1C(=O)O [alisertib] ; what AUC value has been reported?
8.61

====

assay: Vincristine plasma PK in presence; type: in vivo, human; settings: human, plasma, intravenous, 30 mg, Geometric mean CL (CV), alisertib 30 mg b.i.d. cohort, C1D1 (alisertib present), n=4
PROPERTY NAME: clearance (mL/min)
State just the number; it will be interpreted in mL/min.

Suppose we examine the compound CC[C@]1(O)C[C@H]2CN(CCc3c([nH]c4ccccc34)[C@@](C(=O)OC)(c3cc4c(cc3OC)N(C=O)[C@H]3[C@@](O)(C(=O)OC)[C@H](OC(C)=O)[C@]5(CC)C=CCN6CC[C@]43[C@@H]65)C2)C1 ; what clearance value has been reported?
432

====

assay: Alisertib plasma PK in patients; type: in vivo, human; details: human, plasma, oral, 50 mg, Median Tmax (range), MRV, alisertib 50 mg b.i.d., C1D1, n=3
PROPERTY NAME: Tmax (h)
State just the number; it will be interpreted in h.

Suppose we examine the compound COc1cc(Nc2ncc3c(n2)-c2ccc(Cl)cc2C(c2c(F)cccc2OC)=NC3)ccc1C(=O)O ; what Tmax value has been reported?
6.1

====

test: Vincristine plasma PK in presence; assay type: in vivo, human; settings: human, plasma, intravenous, 40 mg, Geometric mean AUC∞ (CV), alisertib 40 mg b.i.d. cohort, C2D1 (alisertib absent), n=16
PROPERTY NAME: AUC(0-inf) (ng·h/mL)
State just the number; it will be interpreted in ng·h/mL.

Suppose we examine the compound CC[C@]1(O)C[C@H]2CN(CCc3c([nH]c4ccccc34)[C@@](C(=O)OC)(c3cc4c(cc3OC)N(C=O)[C@H]3[C@@](O)(C(=O)OC)[C@H](OC(C)=O)[C@]5(CC)C=CCN6CC[C@]43[C@@H]65)C2)C1 ; what AUC(0-inf) value has been reported?
77

====

experiment: Alisertib plasma PK in patients; type: in vivo, human; details: human, plasma, oral, 30 mg, Geometric mean AUCτ (CV), MRV, alisertib 30 mg b.i.d., C1D7, n=4
PROPERTY NAME: AUC (µM·h)
State just the number; it will be interpreted in µM·h.

Suppose we examine the compound COc1cc(Nc2ncc3c(n2)-c2ccc(Cl)cc2C(c2c(F)cccc2OC)=NC3)ccc1C(=O)O ; what AUC value has been reported?
11.8

====

assay: Alisertib plasma PK in patients; format: in vivo, human; conditions: human, plasma, oral, 30 mg, Median Tmax (range), MRV, alisertib 30 mg b.i.d., C1D7, n=4
PROPERTY NAME: Tmax
State the result as a value with its unit after it.

Suppose we examine the molecule COc1cc(Nc2ncc3c(n2)-c2ccc(Cl)cc2C(c2c(F)cccc2OC)=NC3)ccc1C(=O)O ; what Tmax value has been reported?
3.1 h

====

assay: Alisertib plasma PK in patients; assay type: in vivo, human; conditions: human, plasma, oral, 50 mg, Geometric mean Cmax (CV), MRV, alisertib 50 mg b.i.d., C1D1, n=3
PROPERTY NAME: Cmax (µM)
State just the number; it will be interpreted in µM.

Suppose we examine the compound COc1cc(Nc2ncc3c(n2)-c2ccc(Cl)cc2C(c2c(F)cccc2OC)=NC3)ccc1C(=O)O ; what Cmax value has been reported?
1.67

meta.source: paper PMC7731903
